SYSTEM_UNDER_TEST: human GLP-1 receptor (human, UniProt P43220 24-463)
EXPERIMENTAL_DETAILS: cell-based or functional assay
Numbered stars: 1 amine (or outer) side, 2 acyl side, 3 side chain; on linkers, the order of the positions; unused ones are H or OH. Square brackets hold non-standard residues; d marks the D form. Side chains are listed from the residue outwards. * marks the point of attachment. C20 diacid = O=C(O)CCCCCCCCCCCCCCCCCCC(=O)*; C18 diacid = O=C(O)CCCCCCCCCCCCCCCCC(=O)*; C16 diacid = O=C(O)CCCCCCCCCCCCCCC(=O)*; γGlu = O=C(O)[C@H](CCC(=O)[*:2])N[*:1]; Chem. 28 = not defined here; AEEA = NCCOCCOCC(=O)O; Aib = CC(C)(N)C(=O)O
Criterion: hGLP-1R Potency, 1% HSA, EC50 [pM] strictly under 30 pM. Met: T. Not met: F.

Task: Strictly below 30 pM: is that where hGLP-1R Potency, 1% HSA, EC50 [pM] of Compound 76 (peptide) peptide: Y[Aib]EGTFTSDYSILLEEQAAREFIEWLLAGGPSSGAGQAPGQAPGASHLSTAQTQRLSAELHRLATLPK([AEEA-AEEA-γGlu-C20 diacid])TETGSGSP-NH2 sits?
Result: F

Task: Also, Compound 101 (reading uncertain) peptide: H[Aib]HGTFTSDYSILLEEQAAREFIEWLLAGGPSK(Chem. 28)GAPPPSGGGEASHLSTAQTARLSAELHQLATLPRTETGSGSP-NH2 please.
Result: F

Task: Also, Compound 17 (peptide) peptide: H[Aib]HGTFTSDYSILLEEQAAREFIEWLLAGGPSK([AEEA-AEEA-γGlu-C16 diacid])GEASELSTAALGRLSAELHRLATLPRTETGSGSP-NH2 please.
Result: T

Task: Also, Compound 107 (reading uncertain) peptide: H[Aib]HGTFTSDYSILLEEQAAREFIEWLLAGGPSSGALQAPGQAPGASHLSTAQTARLSAELHRLATLPK(Chem. 28)TETGSGSP-NH2 please.
Result: T

Task: Also, Compound 108 (reading uncertain) peptide: H[Aib]HGTFTSDYSILLEEQAAREFIEWLLAGGPSSGALQAPGQAPLASHLSTAQTARLSAELHK(Chem. 28)LATLPRTETGSGSP-NH2 please.
Result: T

Task: Also, Compound 47 (reading uncertain) peptide: H[Aib]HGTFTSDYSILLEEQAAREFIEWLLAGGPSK(Chem. 28)GAGQAPGQAPGASHLSTAQTQRLSAELHELATLPRTETGSGSP-NH2 please.
Result: F

Task: Also, Compound 38 (reading uncertain) peptide: Y[Aib]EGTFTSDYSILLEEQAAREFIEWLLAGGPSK(Chem. 28)GGQAPGQAPGEASHLSTAQTQRLSAELHELATLPRTETGSGSP-NH2 please.
Result: F

Task: Also, Compound 103 (reading uncertain) peptide: H[Aib]HGTFTSDYSILLEEQAAREFIEWLLAGGPSSGAGQAPGQAPGASHLSTAQTARLSAELHK(Chem. 28)LATLPRTETGSGSP-NH2 please.
Result: F

Task: Also, Compound 98 (peptide) peptide: Y[Aib]EGTFTSDYSILLEEQAAREFIEWLLAGGPSSGAGQAPGQAPLASHLSTAQTARLSAELHK([AEEA-AEEA-γGlu-C18 diacid])LATLPRTETGSGSP-NH2 please.
Result: F

Task: Also, Compound 109 (not fully specified; reading uncertain) peptide: Y[Aib]EGTFTSDYSILLEEQAAREFIEWLLAGGPSSGAPPPSGGGEASHLSTAQTQRLSAK(Chem. 28)LHRLATLPRTETGSGSP-NH2 please.
Result: F

Task: Also, Compound 95 (peptide) peptide: Y[Aib]EGTFTSDYSILLEEQAAREFIEWLLAGGPSGGGGEASHLSTAQTQRLSAELHK([AEEA-AEEA-γGlu-C18 diacid])LATLPRTETGSGSP-NH2 please.
Result: F

Task: Also, Compound 63 (peptide) peptide: H[Aib]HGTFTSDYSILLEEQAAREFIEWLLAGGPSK([AEEA-AEEA-γGlu-C18 diacid])GEASQLSTAALGRLSAELHTLATLPRTETGSGSP-NH2 please.
Result: F

Task: Also, Compound 111 (peptide) peptide: Y[Aib]EGTFTSDYSILLEEQAAREFIEWLLAGGPSSGAGQAPGQAPGASHLSTAQTQRLSAELHRLK([AEEA-AEEA-AEEA-γGlu-C18 diacid])TLPRTETGSGSP-NH2 please.
Result: F

Task: Also, Compound 56 (reading uncertain) peptide: Y[Aib]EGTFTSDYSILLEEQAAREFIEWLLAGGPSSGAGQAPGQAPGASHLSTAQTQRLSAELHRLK(Chem. 28)TLPRTETGSGSP-NH2 please.
Result: F

Task: Also, Compound 83 (peptide) peptide: H[Aib]HGTFTSDYSILLEEQAAREFIEWLLAGGPSSGEASHLSTAQTQRLSAELHRLK([AEEA-AEEA-γGlu-C18 diacid])TLPRTETGSGSP-NH2 please.
Result: T
